test: chemical genetic growth profiling, strain panel (AID 1159580);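 also: tested at 20 µM; growth read once vehicle control cultures reached saturation at 30 °C; 1 = growth at the plate median or of vehicle wells; lower values mean less growth of the strain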; details: S. cerevisiae deletion strains, growth OD, locus YPL055C, strain LGE1, active compounds read low
Out of some 5,500 compounds screened, about 2,000 (36%) were called active. About 18% were inconclusive and are not listed. Some of the results follow. Where a SMILES comes first, the peptide text is derived from it.
normalized growth: recorded values

# Compound, normalized growth
data = [
    ("c1ccc(-c2ccc(-c3csc(-c4cccnc4)n3)cc2)cc1", 0.944),
    ("N/C(=N/OC(=O)Nc1ccccc1)c1ccc(C2SCCS2)cc1", 0.694),
    ("CCCCCC(O)c1cccc(OCc2ccc3ccccc3n2)c1 (configuration not stated)", 0.973),
    ("O=C(Nc1cc(C(F)(F)F)cc(C(F)(F)F)c1)C(c1ccccc1)C1CCCC1 (configuration not stated)", 1.03),
    ("CC(N)c1cccc(Cl)c1Cl (configuration not stated)", 1.07),
    ("CC(=O)c1ccc(N2C(=O)CSCC2=O)cc1", 1.02),
    ("CC(=O)OC1CC(OC(C)=O)C2(C)C(CC(OC(C)=O)C3(C)C2CCC2(C)C(c4ccoc4)OC(=O)C4OC423)C1(C)C (configuration not stated)", 1.04),
    ("C1N2CN3CN1CN(C2)C3", 0.977),
    ("CCOC(=O)C(c1ccccc1)C(Nc1ccc(Cl)c(Cl)c1)c1ccccn1 (configuration not stated)", 0.995),
    ("Clc1ccc(C(c2ccccc2Cl)C(Cl)Cl)cc1 (configuration not stated)", 1.03),
    ("CC(=O)NC(CCC(=O)O)C(=O)O (configuration not stated)", 1.03),
    ("O=C(O)COc1ccc(Cl)cc1Cl", 1.03),
    ("O/N=C(/CNC(c1ccccc1)(c1ccccc1)c1ccccc1)c1ccccc1", 0.998),
    ("O=S(=O)(NCC1CC1)c1ccc(F)c(Cl)c1", 1.02),
    ("C[N+]1(C)CCc2cc3c(cc2[C@H]1[C@@H]1OC(=O)c2c1ccc1c2OCO1)OCO3", 1.01),
    ("O=NN(CCCl)C(=O)NCCCl", 0.777),
    ("COC1C=CC23c4cc5c(cc4CN(CC2O)[C@@H]3C1)OCO5 (some centres not stated)", 1.03),
    ("Cc1nc(-c2ccc(-c3ccc(C(=O)N4CCc5cc6c(cc54)C4(CCN(C)CC4)CO6)cc3)c(C)c2)no1", 1.04),
    ("CC(O)C(C)OC(=O)[C@@H]1C[C@@H]2c3cccc4c3c(cn4C(C)C)C[C@H]2N(C)C1 (some centres not stated)", 1),
    ("COC(=O)c1ccsc1N", 0.986),
    ("S=C1NC2(CCCCC2)NN1c1ccccc1", 0.759),
    ("CCOC(=O)C(O)(c1ccc(N)c(C)c1)C(F)(F)F (configuration not stated)", 0.935),
    ("Cc1cccc(C)c1NC(=O)C1CCCCN1C (configuration not stated)", 0.992),
    ("CC(=O)O[C@H]1C[C@@H](OC(C)=O)C(C)(C)C2C[C@@H](OC(C)=O)[C@]3(C)C(CC[C@@]4(C)[C@H](c5ccoc5)OC(=O)[C@H]5O[C@]543)[C@]21C (some centres not stated)", 1.02),
    ("CC(=O)N[C@@H](CC(=O)O)C(=O)N[C@@H](CCC(=O)O)C(=O)O (Ac-Asp-Glu-OH)", 1.02),
    ("Cc1cc2c3c(c1)c(O)cc(=O)n3CCC2", 0.88),
    ("O=C1C2C3C=CC(C3)C2C(=O)N1c1ccc(F)c(F)c1 (configuration not stated)", 1.06),
    ("Cc1nn(-c2ccccc2)nc1-c1nnc(-c2ccc(Cl)cc2)o1", 1.01),
    ("O=c1oc2ccccc2cc1[N+](=O)[O-]", 0.0749),
    ("O=C(O)CCC1NCC2CC1CN1CCCCC21 (configuration not stated)", 0.99),
    ("CCN1CN=C(SCc2ccc(Br)cc2)NC1", 1.06),
    ("Nc1ccc(CCNc2ncnc3c2ncn3C2OC(CO)C(O)C2O)cc1 (configuration not stated)", 0.986),
    ("O=S1(=O)N(CCN2CC=C(c3c[nH]c4cc(F)ccc34)CC2)c2cccc3c2N1CCC3", 0.951),
    ("CCOC(=O)CNc1ccc(Cl)c(Cl)c1", 0.87),
    ("Cc1ccccc1CNc1ncnc2c1ncn2C1OC(CO)C(O)C1O (configuration not stated)", 1.01),
    ("CCCn1c(=O)c2[nH]c(C3CCCC3)nc2n(CCC)c1=O", 0.976),
    ("CC1(C)C(=O)N(CCN2CCC(C(=O)c3ccc(F)cc3)CC2)c2ccccc21", 0.982),
    ("NCCC1CCCC(CCN)N1 (configuration not stated)", 1.02),
    ("NC(N)=NCCN1CCCCCCC1", 1.01),
    ("CCOC(=O)c1ccc(Oc2ccc(Cl)cc2Cl)c([N+](=O)[O-])c1", 0.961),
    ("O=C1CSCC(=O)N1c1ccc(F)c(Cl)c1", 0.97),
    ("O=[N+]([O-])c1ccc(C(O)C(O)CO)cc1 (configuration not stated)", 0.971),
    ("CC(=O)N[C@@H](CCC(=O)O)C(=O)O", 0.977),
    ("CCOC(=O)c1ccc(Oc2sccc2[N+](=O)[O-])cc1", 0.84),
    ("O=C1NN(c2ccccc2)C(=S)Nc2ccccc21", 1.02),
    ("O=C(CN1CCOCC1)Nc1cc(C(F)(F)F)cc(C(F)(F)F)c1", 0.972),
    ("COc1ccc(C(=O)c2sc(Nc3ccccc3)nc2-c2ccccc2)cc1", 0.916),
]

Source listed as PubChem BioAssay AID1159580.
